Assay: chemical genetic growth profiling, strain panel (AID 1159580);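 also: tested at 20 µM; growth read once vehicle control cultures reached saturation at 30 °C; 1 = growth at the plate median or of vehicle wells; lower values mean less growth of the strain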
Conditions: S. cerevisiae deletion strains, growth OD, locus YNR052C, strain pop2, active compounds read low
About 2,000 (36%) of roughly 5,500 compounds were called active. Inconclusive results (about 18%) are left out. The list shows a part of the results.
endpoint: normalized growth

compound: NCCCCN
endpoint: normalized growth
measurement: 1

compound: CC1CCCC(C)N1NC(=O)c1ccc(Cl)c(S(N)(=O)=O)c1 (stereo not drawn)
endpoint: normalized growth
measurement: 0.996

compound: CC1Cc2ccccc2N1NC(=O)c1ccc(Cl)c(S(N)(=O)=O)c1 (stereo not drawn)
endpoint: normalized growth
measurement: 0.991

compound: CCc1ccc2c(O)c3c(cc2c1C(=O)OC)C(=O)c1c(O)ccc(O)c1C3=O
endpoint: normalized growth
measurement: 0.984

compound: O=C(O)c1ccccc1O
endpoint: normalized growth
measurement: 1.02

compound: CN(C)C(=O)C(CCN1CCC(O)(c2ccc(Cl)cc2)CC1)(c1ccccc1)c1ccccc1
endpoint: normalized growth
measurement: 1

compound: CC1(C)S[C@@H]2[C@H](NC(=O)C(C(=O)O)c3ccccc3)C(=O)N2[C@H]1C(=O)O (stereo partly drawn)
endpoint: normalized growth
measurement: 0.983

compound: NC(=O)c1ccccc1O
endpoint: normalized growth
measurement: 1.01

====

Experiment: chemical genetic growth profiling, strain panel (AID 1159580);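 also: tested at 20 µM; growth read once vehicle control cultures reached saturation at 30 °C; 1 = growth at the plate median or of vehicle wells; lower values mean less growth of the strain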
Details: S. cerevisiae deletion strains, growth OD, locus YDL074C, strain BRE1, active compounds read low
About 2,000 (36%) of roughly 5,500 compounds were called active. About 18% were inconclusive and are not listed. Some of the results follow.
endpoint: normalized growth

molecule: CC(=O)Oc1ccccc1C(=O)Oc1ccccc1C(=O)O
endpoint: normalized growth
measurement: 1.01
//
molecule: O=c1c(O)cc([C@H]2Oc3cc(O)cc(O)c3C[C@H]2O)cc2c([C@H]3Oc4cc(O)cc(O)c4C[C@H]3O)cc(O)c(O)c12
endpoint: normalized growth
measurement: 1.04
//
molecule: CC1=CC(=O)C(C(C)C)=CC1=O
endpoint: normalized growth
measurement: 0.797
//
molecule: CCC(=O)OCC(=O)C1(OC(=O)CC)C(C)CC2C3CCC4=CC(=O)C=CC4(C)C3(Cl)C(O)CC21C (centres undefined)
endpoint: normalized growth
measurement: 1.03

====

Assay: chemical genetic growth profiling, strain panel (AID 1159580);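 also: tested at 20 µM; growth read once vehicle control cultures reached saturation at 30 °C; 1 = growth at the plate median or of vehicle wells; lower values mean less growth of the strain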
Conditions: S. cerevisiae deletion strains, growth OD, locus YPL078C, strain atp4, active compounds read low
In all, about 5,500 compounds went through this assay and about 2,000 (36%) were called active. Inconclusive results (about 18%) are left out. The list shows a part of the results.
endpoint: normalized growth

molecule: C[C@]12CCC3C(CC[C@]4(O)C[C@@H](O)CC[C@]34C=O)[C@@]1(O)CCC2C1=CC(=O)OC1 (stereo not given in full)
measurement: 0.942
//
molecule: C[C@H]1O[C@@H](O[C@H]2[C@@H](O)C[C@H](O[C@H]3[C@@H](O)C[C@H](O[C@H]4CC[C@]5(C)C6C[C@@H](O)[C@]7(C)[C@@H](C8=CC(=O)OC8)CC[C@]7(O)C6CC[C@@H]5C4)O[C@@H]3C)O[C@@H]2C)C[C@H](O)[C@@H]1O (stereo not given in full)
measurement: 0.932
//
molecule: CO[C@@H]1[C@@H](OC(N)=O)[C@@H](O)[C@H](Oc2ccc3c(O)c(NC(=O)c4ccc(O)c(CC=C(C)C)c4)c(=O)oc3c2C)OC1(C)C
measurement: 1.02
//
molecule: CC(C)=CC1C(CO)C1(C)C (stereo not given)
measurement: 1.01
//
molecule: C[C@@H]1O[C@@H](O[C@H]2CC[C@]3(C=O)C4CC[C@]5(C)[C@@H](C6=CC(=O)OC6)CC[C@]5(O)C4CC[C@]3(O)C2)[C@H](O)[C@H](O)[C@H]1O (stereo not given in full)
measurement: 1.02
